System: RPMI-8226 leukemia
Test: NCI tumour cell line growth inhibition, 48 h; in the data active = GI50 below about 0.43 µM; inactive = the rest
Reply using exactly one outcome from 1 (active), 0 (inactive)

Which outcome did this test record for the compound CCN1C(=O)N(CC)C2C1NN=c1s/c(=C\c3ccc[nH]3)c(=O)n12 (centres undefined) ? 0

Which outcome did this test record for the compound COc1cc(C2CC(=O)Nc3c2cc(Br)c2ccccc32)cc(Br)c1OC (centres undefined) ? 0

Which outcome did this test record for the compound `COc1ccc2c(c1)C(=O)c1c-2n(CCCN)c(=O)c2cc([N+](=O)[O-])ccc12` ? 1

Which outcome did this test record for the compound `COc1ccc2c(c1)C(=O)c1c-2c(N2CCNCC2)nc2ccccc12` ? 0

Which outcome did this test record for the compound `NS(=O)(=O)c1cccc(-c2ccc3c(NC(=O)C4CC4)n[nH]c3c2)c1` ? 0

Which outcome did this test record for the compound `C=C1C(=O)O[C@H]2[C@H]1CC/C(CNC(=O)/C=C/c1ccccc1)=C\CC[C@@]1(C)O[C@@H]21` ? 0

Which outcome did this test record for the compound CN(c1ccc(C#N)c(Cl)c1)C1CCC(NC(=O)c2ccc(N3CCN(C4CN(c5ccc6c(c5)C(=O)N(C5CCC(=O)NC5=O)C6=O)C4)CC3)cc2)CC1 (centres undefined) ? 0

Which outcome did this test record for the compound CCOC1OC(=O)[C@H]2[C@@H]1[C@@H]1CC[C@H]2O1 (some centres undefined) ? 0

Which outcome did this test record for the compound `Cc1cccc2c(Nc3ccc(NS(C)(=O)=O)cc3)c3ccc([N+](=O)[O-])cc3nc12` ? 0
